reported conditions: in acetone, 288.2 K
endpoint: solubility (mole fraction)
Give the figure only, with no unit attached.

Would you kindly share the measured solubility (mole fraction) for CC1(C)O[C@H]2CC(=O)OC[C@]23[C@H]2CC[C@@]4(C)[C@H](c5ccoc5)OC(=O)[C@H]5O[C@]54[C@]2(C)C(=O)C[C@@H]13 ?
0.00454

---

reported conditions: in methanol, 313.2 K
endpoint: solubility (mole fraction)
Give the figure only, with no unit attached.

Would you kindly share the measured solubility (mole fraction) for CC1(C)O[C@H]2CC(=O)OC[C@]23[C@H]2CC[C@@]4(C)[C@H](c5ccoc5)OC(=O)[C@H]5O[C@]54[C@]2(C)C(=O)C[C@@H]13 ?
0.000162

# credit: BigSolDB 2.1
